# measurement target: mGluR5 (Homo sapiens, UniProt P41594)
# Sequence (P41594 21-1212): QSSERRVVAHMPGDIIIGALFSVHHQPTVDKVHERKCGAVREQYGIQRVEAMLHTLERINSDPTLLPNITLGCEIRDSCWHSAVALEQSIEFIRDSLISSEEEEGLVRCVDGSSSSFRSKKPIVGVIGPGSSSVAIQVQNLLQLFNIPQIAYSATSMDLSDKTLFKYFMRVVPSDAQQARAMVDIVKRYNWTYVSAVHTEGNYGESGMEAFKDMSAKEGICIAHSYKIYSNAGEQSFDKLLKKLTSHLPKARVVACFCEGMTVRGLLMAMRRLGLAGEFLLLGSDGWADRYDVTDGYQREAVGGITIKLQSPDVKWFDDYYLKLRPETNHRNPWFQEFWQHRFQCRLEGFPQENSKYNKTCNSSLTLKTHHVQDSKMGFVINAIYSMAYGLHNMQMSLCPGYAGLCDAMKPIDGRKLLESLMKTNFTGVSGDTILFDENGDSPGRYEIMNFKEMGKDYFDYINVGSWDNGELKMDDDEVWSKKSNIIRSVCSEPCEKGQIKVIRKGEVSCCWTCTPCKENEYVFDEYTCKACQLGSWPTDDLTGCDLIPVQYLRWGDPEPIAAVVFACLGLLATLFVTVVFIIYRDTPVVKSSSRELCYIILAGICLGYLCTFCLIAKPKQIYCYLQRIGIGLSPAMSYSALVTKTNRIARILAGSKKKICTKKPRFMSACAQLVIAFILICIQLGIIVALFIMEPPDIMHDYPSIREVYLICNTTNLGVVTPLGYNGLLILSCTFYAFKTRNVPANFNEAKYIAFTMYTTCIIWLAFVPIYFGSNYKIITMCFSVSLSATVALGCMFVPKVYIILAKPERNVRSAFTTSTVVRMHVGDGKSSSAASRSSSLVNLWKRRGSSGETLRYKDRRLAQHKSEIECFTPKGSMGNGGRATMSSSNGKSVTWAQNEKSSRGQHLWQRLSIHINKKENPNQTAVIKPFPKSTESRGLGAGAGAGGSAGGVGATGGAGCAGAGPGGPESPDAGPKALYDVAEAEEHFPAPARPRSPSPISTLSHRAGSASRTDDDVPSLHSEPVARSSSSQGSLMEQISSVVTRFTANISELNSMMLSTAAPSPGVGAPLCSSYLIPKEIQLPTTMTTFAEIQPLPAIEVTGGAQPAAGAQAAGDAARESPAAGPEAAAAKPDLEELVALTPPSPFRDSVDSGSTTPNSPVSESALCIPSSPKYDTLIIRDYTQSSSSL
# protocol notes: mGluR5 PAM EC50 (positive allosteric modulator potency)
pEC50: −log10 of the molar value.
property name: pEC50

# example entries with known answers
# compound, measurement target, pEC50
data = [
    ("CC1(C)CCc2nc3cc(C#Cc4cccc(C#N)c4)ccc3c(=O)n2C1 [Example 2.45]", "mGluR5 (Homo sapiens, UniProt P41594)", "7.52 to 8.00"),
    ("O=c1c2ccc(C#Cc3ccccn3)cc2nc2n1CCC1CC21 (single isomer, unassigned) [Example 2.10a]", "mGluR5 (Homo sapiens, UniProt P41594)", "7.00 to 7.52"),
    ("CCC1(C)Cc2nc3cc(C#Cc4ccccn4)cnc3c(=O)n2C1 (stereo not shown) [Example 1.19]", "mGluR5 (Homo sapiens, UniProt P41594)", "7.00 to 7.52"),
]

Next:
Name the recorded pEC50 for O=c1c2ccc(C#Cc3ccccn3)cc2nc2n1CCC(O)CC2 (single isomer, unassigned) [Example 3.2a] .
6.00 to 6.52
